Give measured apparent KD of MS2 coat protein for each item. Keep answers brief.
Test system: MS2 coat protein
Experiment: apparent KD of MS2 coat protein, switch OFF state (with FMN for OFF switches, without FMN for ON switches); designed switch direction (-1 OFF switch, 1 ON switch): 1; higher = weaker reporter binding
Conditions: FMN input: 0 or 200 uM; Eterna round: R93 (includes R88 designs)
// units = nM; emit number, no label

[Q] Any idea what apparent KD of MS2 coat protein came out for CGAAGACAUGAGGAUCACCCAUGUGGGAUUAUGGGAGGAUAUACAAAGACGAGAGUCAGAGUAGAAGGCCUAGGAU [salish99-ss1-125(!)] on MS2 coat protein?
[A] 47.8

[Q] Any idea what apparent KD of MS2 coat protein came out for AAAAAAGAUCGCGAGGAUAUCCGAGUGGUAACAUGAGGAUCACCCAUGUGAAGAAAGGAACAUGAGGAGAAGGCGCGAUCAAAAA [viburnum 5] on MS2 coat protein?
[A] 18.7

[Q] Any idea what apparent KD of MS2 coat protein came out for AAUAUAUUAAGUGAGGAUAUCGAGGAAAAAACAUGAGGAUCACCCAUGUGGGUAAAAAAAAAAAGUGAGAAGGUGCUUAAUAUAU [Samwise Clockwise 10 - Jieux - Same State 2] on MS2 coat protein?
[A] 128

[Q] Any idea what apparent KD of MS2 coat protein came out for AAAUAAAUGACUAAGGAUAUUUCAGAGAAAACAUGAGGAUCACCCAUGUAAUAAUAAAAAGGGUGAAAGAAGGUAGUCAACAAAC [74%, More Paria 4] on MS2 coat protein?
[A] 41

[Q] Any idea what apparent KD of MS2 coat protein came out for AUAAAACAUGAGGAUCACCCAUGUAGAAAUAUGGGAGGAUAUACAAGGACGAAAGUCAAGGUAGAAGGCCUAAAAG [Mat - Same State 1 - Meechl mod - D119] on MS2 coat protein?
[A] 126

[Q] Any idea what apparent KD of MS2 coat protein came out for GGGAGGAAGAGAGAGGAUAUCCAAAGGAAAACAUGAGGAUCACCCAUGUAAAAGGUAGGAAAUUGGGAGAAGGCUCAAGAGAUGG [salish99-ss2-052] on MS2 coat protein?
[A] 39.2
